# Target Of Assay: UniProtKB P04401
# Sequence (whole entry): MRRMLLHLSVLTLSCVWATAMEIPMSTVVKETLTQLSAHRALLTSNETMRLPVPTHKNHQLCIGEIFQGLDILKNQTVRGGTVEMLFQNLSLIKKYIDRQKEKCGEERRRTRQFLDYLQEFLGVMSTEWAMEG
# Procedure Text: Inhibition of interleukin-5 in mouse Y16 cells at 30 uM
# Format: cell-based
Measurement Label: inhibition (%)

{"Molecule": "O=c1c(CNc2ccccc2)coc2cccc(OCC3CCCCC3)c12", "Measurement Label": "inhibition", "Measured": 14}
{"Molecule": "O=c1c(CNCCCCCO)coc2cccc(OCC3CCCCC3)c12", "Measurement Label": "inhibition", "Measured": 20}
{"Molecule": "COc1ccc(NCc2coc3cccc(OCC4CCCCC4)c3c2=O)cc1", "Measurement Label": "inhibition", "Measured": 31}

[A] O=c1c(CNCCCO)coc2cccc(OCC3CCCCC3)c12
[B] O=c1c(CNC(CO)c2ccccc2)coc2cccc(OCC3CCCCC3)c12 (stereo unspecified)
[C] COc1ccc(CNCc2coc3cccc(OCC4CCCCC4)c3c2=O)cc1
Order field: inhibition | Direction: descending (largest first) Lab note: final answer is the ordered label list.
B, C, A
(B: 88%, C: 43%, A: 15%)

[I] O=c1c(CNC(CO)Cc2ccccc2)coc2cccc(OCC3CCCCC3)c12 (stereo unspecified)
[II] O=c1c(CNCc2ccccc2)coc2cccc(OCC3CCCCC3)c12
Compare the recorded inhibition of I and II ; state which is larger. Indicate your choice by writing its label.
I

Ref: ChEMBL document CHEMBL1177657
